B1: TPR t1 (parent)
chain: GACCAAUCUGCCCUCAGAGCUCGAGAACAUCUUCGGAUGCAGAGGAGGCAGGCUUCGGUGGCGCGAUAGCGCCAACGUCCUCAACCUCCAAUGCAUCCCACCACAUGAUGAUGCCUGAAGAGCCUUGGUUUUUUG

- Variants of: B1
- TEST PROTOCOL: polymerase ribozyme fitness, log enrichment relative to wild type (log ratio); higher = more active; in vitro selection for triplet polymerase activity
Assign a class from recorded polymerase ribozyme fitness (log ratio); defined classes: c1: < -3; c2: ≥ -3 and < -2; c3: ≥ -2

G44C C70G	c1
A37G C104G	c1
G69A G110C U129A	c1
G10U A41U C72G C101U G110A	c1
C53U G63C C98G	c1
C8U G127C	c3

Any idea which band G35U C123U is in?
c2
